Numbers sourced from PubChem BioAssay.

In this section we review reported activity values for a set of molecules.
# Assayed system: Tumor necrosis factor receptor superfamily member 10B (Homo sapiens)
# Assay: caspase-8 TRAIL sensitization, hit retest, confirmation, cell-based, NB7+caspase-8, with/without TRAIL, luminescence panel (AID 651596)
# Conditions used: NB7 neuroblastoma + caspase-8, TRAIL sensitization, luminescence viability, with TRAIL, mean of runs, at 10 µM, stronger effect = higher value
Output spec: scalar in %, unitless text.

QUERY: Param readout = activity; param system = Tumor necrosis factor receptor superfamily member 10B (Homo sapiens); param query = Cc1ccc(-c2cnc3cc(C)nn3c2)cc1 ; response: value
RESULT: 73.9

QUERY: Kindly state the measured activity obtained for CCS(=O)(=O)c1ncc(Cl)c(C(=O)Nc2ccc(S(=O)(=O)N3CCC(C)CC3)cc2)n1 with Tumor necrosis factor receptor superfamily member 10B (Homo sapiens).
RESULT: 95.2

QUERY: Provide the documented activity with Tumor necrosis factor receptor superfamily member 10B (Homo sapiens) as the system for O=Nc1c2cc(-c3ccccc3)[nH]nc-2c2ccccc12
RESULT: 78.8

QUERY: Query the reported activity for Tumor necrosis factor receptor superfamily member 10B (Homo sapiens); item: O=C(Nc1ccc(Cl)cc1)/C(=C/c1cccc(O)c1)c1nc2ccccc2s1
RESULT: 95.7

QUERY: So what activity did COc1ccc(-c2cc(C(=O)N3CCCC3)no2)cc1 get with Tumor necrosis factor receptor superfamily member 10B (Homo sapiens)?
RESULT: 64.9

QUERY: Test system Tumor necrosis factor receptor superfamily member 10B (Homo sapiens); read-out activity; what value for Cc1nc(-c2ccc(NC(=O)c3ccccc3)cc2)cs1 ?
RESULT: 80.8

---

# Assayed system: Tumor necrosis factor receptor superfamily member 10B (Homo sapiens) (UniProt O14763)
# Sequence (O14763 whole entry, looked up): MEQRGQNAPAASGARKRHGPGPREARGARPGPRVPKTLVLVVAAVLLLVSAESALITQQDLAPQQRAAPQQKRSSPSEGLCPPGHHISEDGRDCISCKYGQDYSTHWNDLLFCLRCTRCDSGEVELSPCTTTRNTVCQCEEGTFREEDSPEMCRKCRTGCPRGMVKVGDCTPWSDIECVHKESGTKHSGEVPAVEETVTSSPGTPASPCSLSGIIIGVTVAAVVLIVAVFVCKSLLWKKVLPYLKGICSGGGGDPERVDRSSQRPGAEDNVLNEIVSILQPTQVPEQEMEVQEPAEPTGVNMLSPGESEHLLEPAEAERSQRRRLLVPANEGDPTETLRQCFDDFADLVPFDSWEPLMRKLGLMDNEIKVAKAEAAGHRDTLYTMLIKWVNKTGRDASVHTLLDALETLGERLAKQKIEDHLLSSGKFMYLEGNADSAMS
# Assay: caspase-8 TRAIL sensitization, hit retest, confirmation, cell-based, NB7+caspase-8, with/without TRAIL, luminescence panel (AID 651596)
# Conditions used: NB7 neuroblastoma + caspase-8, TRAIL sensitization, luminescence viability, with TRAIL, mean of runs, at 10 µM, stronger effect = higher value
Each entry below carries its recorded activity.
Give the value, in units of %, as a plain number.

Here's what some known entries look like.
1) CC(C)C(=O)N1CCN(c2ccc(NC(=O)c3ccc([N+](=O)[O-])o3)cc2Cl)CC1	75.4
2) C(=N\NC1=Nc2cccc3cccc1c23)/c1ccccn1	50.6
3) O=C(CN1CCN(S(=O)(=O)c2ccc(F)cc2)CC1)Nc1ccc(Cl)c(C(F)(F)F)c1	24.1

QUERY: Param item = N/C(=N\OC(=O)c1ccccc1Cl)c1cccnc1 ; retrieve measured activity.
RESULT: 67.2

QUERY: I would be grateful if you could share the reported activity for CSc1nnc(NC(=O)c2nc(S(=O)(=O)Cc3ccccc3F)ncc2Cl)s1 .
RESULT: 80.3

QUERY: # get_value(readout='activity', item= CC(=O)c1sc(NC(=O)c2ccc(C)cc2)nc1C )
RESULT: 68.5

QUERY: Which activity is listed for CC(=O)Nc1ccc(C=NNc2nnc(NN=Cc3ccc(NC(C)=O)cc3)c3ccccc23)cc1 ?
RESULT: 68.6

QUERY: Find the recorded activity belonging to c1cc2c(cc1C1=NNC(=NC3CC3)SC1)OCCO2 and report it.
RESULT: 93.3

QUERY: Sample O=C(c1ccc(CSc2nc3ccncc3[nH]2)cc1)N1CCCCCC1 — what was its activity?
RESULT: 85.7

QUERY: Looking for the measured activity of c1ccc(-c2cnc(-c3ccccc3)nn2)cc1 , can you help?
RESULT: 64.9

QUERY: Tell me the measured activity of CC(C)(C)c1csc(NC(=O)Nc2ccccc2)n1 , please.
RESULT: 41.3
